Reference for the values: patent US10295551B2

- measured-target: rI-FABP (SEQ ID NO: 3) variant L2P14 F7, 18G 31M 72A (Rattus norvegicus, UniProt P02693, G32M/L73A/M19G)
- assay-summary: bilirubin binding to L2P14F7 probe
- condition-label: Table 6, acrylodan
endpoint-label: pKd
Numbers only, as −log10 of the molar value.

Ask: Give pKd for the following compound: "C=CC1=C(C)/C(=C/c2[nH]c(Cc3[nH]c(/C=C4\NC(=O)C(C)=C4C=C)c(C)c3CCC(=O)O)c(CCC(=O)O)c2C)NC1=O"
Result: 7.16

###

- measured-target: rI-FABP (SEQ ID NO: 3) variant BL22P1 B11 - 54C, MGI - KR14 - 14R 18L 27A 38V 54C 60R 73F 106L 115R 117D (Rattus norvegicus, UniProt P02693, A74F/K101R/K126R/K17R/K21R/K28A/K30R/K38R/K47R/K51R/K89R/K8R/K93R/K95R/L39V/L73A/M19L/N55C/Q116R/R107L/V61R/Y118D/Y15R)
- Construct: 6xHis (C)
- condition-label: Table 5, Alexa Fluor 680 C2-maleimide
endpoint-label: Kd
I'd appreciate it if you included the unit after the number.

Ask: Give Kd for the following molecule: C=CC1=C(C)/C(=C/c2[nH]c(Cc3[nH]c(/C=C4\NC(=O)C(C)=C4C=C)c(C)c3CCC(=O)O)c(CCC(=O)O)c2C)NC1=O [bilirubin]
Result: 160 nM

###

- measured-target: rI-FABP (SEQ ID NO: 3) variant L119P3E5, 18V 27C 31A 72A 73W (Rattus norvegicus, UniProt P02693, A74W/G32A/K28C/L73A/M19V)
- Construct: 6xHis (C)
- Sequence (P02693 with tags, fused parts or gaps M19V/K28C/G32A/L73A/A74W): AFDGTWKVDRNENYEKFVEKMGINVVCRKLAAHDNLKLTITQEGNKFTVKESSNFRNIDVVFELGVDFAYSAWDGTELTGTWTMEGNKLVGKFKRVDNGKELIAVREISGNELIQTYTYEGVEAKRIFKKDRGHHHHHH
- assay-summary: fatty acid binding to L119P3E5
endpoint-label: pKd
Answers are plain numbers, as −log10 of the molar value.

{"molecule": "CCCCC/C=C\\C/C=C\\CCCCCCCC(=O)O [Linoleate 18:2 (n-6), Linoleate]", "pKd": 7.64}

Let's switch to this molecule now.
Ask: Give pKd for the following molecule: CCCCCCCC/C=C\CCCCCCCC(=O)O [Oleate 18:1 (n-9), Oleate]
Result: 7.90

###

- measured-target: rI-FABP (SEQ ID NO: 3) variant L24P19 C7 K27K 24C, 14R 18L 24C 38V 60R 73F 106C 115R 117D (Rattus norvegicus, UniProt P02693, A74F/L39V/L73A/M19L/N25C/Q116R/R107C/V61R/Y118D/Y15R)
- assay-summary: bilirubin binding to L24P19C7 24C probe
- condition-label: Table 5, acrylodan
endpoint-label: Kd (nM)
Answers are plain numbers, in nM.

Ask: Give Kd for the following molecule: C=CC1=C(C)/C(=C/c2[nH]c(Cc3[nH]c(/C=C4\NC(=O)C(C)=C4C=C)c(C)c3CCC(=O)O)c(CCC(=O)O)c2C)NC1=O [bilirubin]
Result: 89

###

- measured-target: rI-FABP (SEQ ID NO: 3) variant L2P14 F7 - K27C, 18G 27C 31M 72A (Rattus norvegicus, UniProt P02693, G32M/K28C/L73A/M19G)
- assay-summary: bilirubin binding to L2P14F7-K27C probe
- condition-label: Table 5, acrylodan
- Description: Also described are analytical/mathematical methods for calibrating and using the bilirubin probes. […] Binding isotherms are performed in aqueous buffer by measuring the change in fluorescence of the bilirubin probes in response to increasing bilirubin concentrations (“titration data”). […]
endpoint-label: pKd
Answers are plain numbers, as −log10 of the molar value.

Ask: Give pKd for the following molecule: "C=CC1=C(C)/C(=C/c2[nH]c(Cc3[nH]c(/C=C4\NC(=O)C(C)=C4C=C)c(C)c3CCC(=O)O)c(CCC(=O)O)c2C)NC1=O"
Result: 6.60

###

- measured-target: rI-FABP (SEQ ID NO: 3) variant L24P19 C7 K27K 22C, 14R 18L 22C 38V 60R 73F 106C 115R 117D (Rattus norvegicus, UniProt P02693, A74F/G23C/L39V/L73A/M19L/Q116R/R107C/V61R/Y118D/Y15R)
- assay-summary: bilirubin binding to L24P19C7 22C probe
- condition-label: Table 5, acrylodan
- Method: Also described are analytical/mathematical methods for calibrating and using the bilirubin probes. […] Binding isotherms are performed in aqueous buffer by measuring the change in fluorescence of the bilirubin probes in response to increasing bilirubin concentrations (“titration data”). […]
endpoint-label: Kd (nM)
Give bare numbers, in nM.

Ask: Give Kd for the following compound: C=CC1=C(C)/C(=C/c2[nH]c(Cc3[nH]c(/C=C4\NC(=O)C(C)=C4C=C)c(C)c3CCC(=O)O)c(CCC(=O)O)c2C)NC1=O [bilirubin]
Result: 71

###

- measured-target: rI-FABP (SEQ ID NO: 3) variant L138P1H8 N24C, MGI-18L 21L 23Y 24C 31I 55V 72S 73S 74G 76V 117H 128Y (Rattus norvegicus, UniProt P02693, A74S/D75G/F129Y/F56V/G32I/I24Y/L73S/M19L/M22L/N25C/T77V/Y118H)
- Construct: 6xHis (C)
- assay-summary: fatty acid binding to L138P1H8N24C
endpoint-label: Kd (nM)
One number for each entry, in nM.

{"compound": "CCCCC/C=C\\C/C=C\\CCCCCCCC(=O)O [Linoleate 18:2 (n-6), Linoleate]", "reported": 6.5}

Ask: Give Kd for the following compound: CCCCCCCC/C=C\CCCCCCCC(=O)O [Oleate 18:1 (n-9), Oleate]
Result: 7.6

###

- measured-target: rI-FABP (SEQ ID NO: 3) variant ADIFAB2, 72A (Rattus norvegicus, UniProt P02693, L73A)
- Construct: 6xHis (C)
- assay-summary: fatty acid binding to ADIFAB2
endpoint-label: Kd (nM)
Answers are plain numbers, in nM.

{"compound": "CCCCCCCC/C=C\\CCCCCCCC(=O)O [Oleate 18:1 (n-9), Oleate]", "output-unit": "nM", "Kd": 21.5}

Let's switch to this compound now.
Ask: Give Kd for the following compound: CCCCC/C=C\C/C=C\CCCCCCCC(=O)O [Linoleate 18:2 (n-6), Linoleate]
Result: 105

###

- measured-target: rI-FABP (SEQ ID NO: 3) variant BL22P1 B11 - 27C, MGI - KR14 - Y14R M18L K27C L38V V60R A73F R106L Q115R Y117D (Rattus norvegicus, UniProt P02693, A74F/K101R/K126R/K17R/K21R/K28C/K30R/K38R/K47R/K51R/K89R/K8R/K93R/K95R/L39V/L73A/M19L/Q116R/R107L/V61R/Y118D/Y15R)
- Construct: 6xHis (C); made in house
- Type: binding
- condition-label: Table 5, Alexa Fluor 680 C2-maleimide
endpoint-label: pKd
Answers are plain numbers, as −log10 of the molar value.

Ask: Give pKd for the following molecule: "C=CC1=C(C)/C(=C/c2[nH]c(Cc3[nH]c(/C=C4\NC(=O)C(C)=C4C=C)c(C)c3CCC(=O)O)c(CCC(=O)O)c2C)NC1=O"
Result: 7.15

###

- measured-target: rI-FABP (SEQ ID NO: 3) variant BL2P2 B6, 14R 18L 31C 38V 60R 73V 106A 115R 117D (Rattus norvegicus, UniProt P02693, A74V/G32C/L39V/L73A/M19L/Q116R/R107A/V61R/Y118D/Y15R)
- assay-summary: bilirubin binding to BL2P2B6 probe
- condition-label: Table 5, acrylodan
endpoint-label: pKd
Give bare numbers, as −log10 of the molar value.

Ask: Give pKd for the following compound: C=CC1=C(C)/C(=C/c2[nH]c(Cc3[nH]c(/C=C4\NC(=O)C(C)=C4C=C)c(C)c3CCC(=O)O)c(CCC(=O)O)c2C)NC1=O [bilirubin]
Result: 6.86

###

- measured-target: rI-FABP (SEQ ID NO: 3) variant BL22P1B11, MGI-KR14-14R 18L 25C 27A 38V 60R 73F 106L 115R 117D, SEQ ID NO: 35 (Rattus norvegicus, UniProt P02693, A74F/K101R/K126R/K17R/K21R/K28A/K30R/K38R/K47R/K51R/K89R/K8R/K93R/K95R/L39V/L73A/M19L/Q116R/R107L/V26C/V61R/Y118D/Y15R)
- Construct: made in house
- Sequence (P02693 with tags, fused parts or gaps K8R/Y15R/K17R/M19L/K21R/V26C/K28A/K30R/K38R/L39V/K47R/K51R/V61R/L73A/A74F/K89R/K93R/K95R/K101R/R107L/Q116R/Y118D/K126R): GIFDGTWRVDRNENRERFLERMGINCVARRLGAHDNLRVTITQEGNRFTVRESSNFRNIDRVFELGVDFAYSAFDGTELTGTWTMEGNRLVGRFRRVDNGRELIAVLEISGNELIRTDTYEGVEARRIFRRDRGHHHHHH
- Assay type: binding
- condition-label: Table 5, Alexa Fluor 680 C2-maleimide; read-out: Kd
endpoint-label: Kd (nM)
Numbers only, in nM.

Ask: Give Kd for the following compound: "C=CC1=C(C)/C(=C/c2[nH]c(Cc3[nH]c(/C=C4\NC(=O)C(C)=C4C=C)c(C)c3CCC(=O)O)c(CCC(=O)O)c2C)NC1=O"
Result: 110
